# measurement.target: monoclonal antibody MV-002
# protocol.summary: ELISA on peptide-BSA; code 3 = strong binding, OD halfmax 1:>320000
Please go through the items and note down their OD halfmax dilution factor of the parental antibody (1:X) (dilutionfactor(1:x)).

[ask] Which OD halfmax dilution factor of the parental antibody (1:X) (dilutionfactor(1:x)) is reported for this binder? GELWFPC [p4673]
[reply] > 320000

[ask] Which OD halfmax dilution factor of the parental antibody (1:X) (dilutionfactor(1:x)) is reported for this binder? THQRLWFC [p4693]
[reply] > 320000

[ask] Which OD halfmax dilution factor of the parental antibody (1:X) (dilutionfactor(1:x)) is reported for this binder? GEIKFDHC [p4698]
[reply] > 320000

[ask] Which OD halfmax dilution factor of the parental antibody (1:X) (dilutionfactor(1:x)) is reported for this binder? GDLKFPLC [p4683]
[reply] > 320000

[ask] Which OD halfmax dilution factor of the parental antibody (1:X) (dilutionfactor(1:x)) is reported for this binder? GEIRFGSC [p4696]
[reply] > 320000

[ask] Which OD halfmax dilution factor of the parental antibody (1:X) (dilutionfactor(1:x)) is reported for this binder? GQLKFPFC [p4690]
[reply] > 320000

[ask] Which OD halfmax dilution factor of the parental antibody (1:X) (dilutionfactor(1:x)) is reported for this binder? GEIWFEGC [p4680]
[reply] > 320000

[ask] Which OD halfmax dilution factor of the parental antibody (1:X) (dilutionfactor(1:x)) is reported for this binder? HMRMYFEC [p4687]
[reply] > 320000
